Target: TtSlyDΔIF (IF domain replaced by the flap loop from human FKBP12) (Thermus thermophilus)
Assay type: binding
Settings: ITC one-site model (FKBP domain); 25 °C; read-out: KD2
No end group written: not given here.
So I've got a bunch of substances here, and I need their Kd values.
Number first, unit second: that is the form wanted.

See these solved cases before continuing.
substance: TRYWNAKMKPFIFGA-NH2 [S2-P25A]
Kd: 12.1 µM
//
substance: TRYANPKMKPFIFGA-NH2 [S2-W23A]
Kd: 17.1 µM

IN: Reported Kd for TtSlyDΔIF (IF domain replaced by the flap loop from human FKBP12) (Thermus thermophilus), given TRYWNPKMKEFIFGA-NH2 [S2-P29E] ?
OUT: 13.8 µM

---

Molecular target: TtSlyDFL (full-length SlyD from Thermus thermophilus) (Thermus thermophilus, UniProt Q5SLE7)
Experiment: ITC binding of peptides to full-length TtSlyD
Conditions: ITC two-site model, site 2 (FKBP domain); 25 °C
No end group written: not given here.
Exercise: state measured –T · ΔS2 for each of the substances provided.
Answers are plain numbers, in kJ/mol.

Consider the reported –T · ΔS2 for these substances:
substance: GHQTRYWNPKMKPFI-NH2 [S2-minus1]
unitAbbrev: kJ/mol
–T · ΔS2: 17.2
--
substance: KMKPFIFGARNKVHI-NH2 [S2-plus2]
unitAbbrev: kJ/mol
–T · ΔS2: 5.02
--
substance: WNPKMKPFIFGARNK-NH2 [S2-plus1]
unitAbbrev: kJ/mol
–T · ΔS2: 1.7

For the next question, use this substance.
IN: Name the recorded –T · ΔS2 for TRYWNAKMKPFIFGA-NH2 [S2-P25A] .
OUT: 6.28

---

Biological target: TtSlyDFL (full-length SlyD from Thermus thermophilus) (Thermus thermophilus)
Sequence (Q5SLE7 1-149): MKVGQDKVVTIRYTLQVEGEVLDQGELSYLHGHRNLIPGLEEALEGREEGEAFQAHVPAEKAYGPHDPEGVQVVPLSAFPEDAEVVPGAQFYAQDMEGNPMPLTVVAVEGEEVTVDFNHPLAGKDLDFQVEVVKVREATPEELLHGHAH
Experiment: ITC binding of peptides to full-length TtSlyD
No end group written: not given here.
reportedProperty: pKd
Give bare numbers, as −log10 of the molar value.

IN: Lab note: need pKd with TtSlyDFL (full-length SlyD from Thermus thermophilus) (Thermus thermophilus) for entry SGLVTRGS-NH2 [SlpA linker P5T] , please look it up.
OUT: 3.89
